These entries and their values trace back to ChEMBL document CHEMBL5252509.

molecular target: Serine/threonine-protein kinase Nek3 (Homo sapiens) (UniProt P51956); assay: Inhibition of NEK3 (unknown origin) at 1 uM relative to control
Sequence (P51956 whole entry): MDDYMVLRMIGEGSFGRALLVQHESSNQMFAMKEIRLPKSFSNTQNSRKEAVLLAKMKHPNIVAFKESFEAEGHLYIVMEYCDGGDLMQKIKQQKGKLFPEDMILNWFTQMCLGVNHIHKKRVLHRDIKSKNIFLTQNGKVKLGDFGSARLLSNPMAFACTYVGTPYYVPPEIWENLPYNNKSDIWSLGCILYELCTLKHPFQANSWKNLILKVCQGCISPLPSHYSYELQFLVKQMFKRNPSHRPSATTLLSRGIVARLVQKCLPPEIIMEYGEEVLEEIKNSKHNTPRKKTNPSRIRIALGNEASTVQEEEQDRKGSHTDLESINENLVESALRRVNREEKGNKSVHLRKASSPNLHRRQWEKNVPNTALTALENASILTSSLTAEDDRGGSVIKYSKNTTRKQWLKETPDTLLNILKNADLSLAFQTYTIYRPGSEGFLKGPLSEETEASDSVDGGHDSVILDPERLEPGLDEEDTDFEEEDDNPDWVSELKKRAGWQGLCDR
Outcome measure: inhibition (%)
Enter your answer as a number in %; do not include the unit.

COc1ccc(Nc2ncc(C#N)c(Nc3ccccc3C(N)=O)n2)cc1N1CCN(C)CC1 :: 6.5
CC(C)Oc1ccc2c(-c3ccnc(Nc4ccc(N5CCN(C)CC5)cc4)n3)cnn2n1 :: 1.5
c1ccc(-c2ccnc3[nH]ccc23)cc1 :: 19
Cn1cc(-c2ccc3c(c2)CCN3C(=O)Cc2cccc(C(F)(F)F)c2)c2c(N)ncnc21 :: 0

Problem: Please respond with reported inhibition (system Serine/threonine-protein kinase Nek3 (Homo sapiens) (UniProt P51956)) for O=C1NC(=O)C(c2ccccc2Cl)=C1Nc1cccc(Cl)c1 .
Solution: 56

Problem: Please indicate recorded inhibition of COc1cccc(CC(=O)N2CCc3cc(-c4cn(C)c5ncnc(N)c45)ccc32)c1 measured with Serine/threonine-protein kinase Nek3 (Homo sapiens) (UniProt P51956).
Solution: 4

Problem: Under Serine/threonine-protein kinase Nek3 (Homo sapiens) (UniProt P51956), report inhibition for Cn1cc(-c2ccc3c(c2)CCN3C(=O)Cc2cc(F)cc(F)c2F)c2c(N)ncnc21
Solution: 0

Problem: State inhibition (Serine/threonine-protein kinase Nek3 (Homo sapiens) (UniProt P51956)) of O=S(=O)(c1ccc(-c2ccnc3[nH]ccc23)cc1)N1CCCC1 .
Solution: 16

----------
target: Serine/threonine-protein kinase Nek2 (Homo sapiens) (UniProt P51955); test: Inhibition of NEK2 (unknown origin) at 10 uM relative to control
Sequence (P51955 whole entry): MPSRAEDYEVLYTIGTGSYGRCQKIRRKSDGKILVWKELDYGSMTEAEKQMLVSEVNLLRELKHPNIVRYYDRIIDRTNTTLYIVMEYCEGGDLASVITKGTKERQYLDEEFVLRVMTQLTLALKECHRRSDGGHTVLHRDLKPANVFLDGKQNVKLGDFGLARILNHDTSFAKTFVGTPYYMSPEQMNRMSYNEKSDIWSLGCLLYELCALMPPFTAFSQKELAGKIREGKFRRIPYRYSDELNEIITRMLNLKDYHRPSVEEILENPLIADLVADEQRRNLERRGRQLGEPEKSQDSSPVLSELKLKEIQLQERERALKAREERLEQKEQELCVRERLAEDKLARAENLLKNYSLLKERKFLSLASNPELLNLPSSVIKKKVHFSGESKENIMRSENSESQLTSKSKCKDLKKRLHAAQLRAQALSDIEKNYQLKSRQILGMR
Label 1 when % control is strictly below 90%; otherwise label -1.

Use these answered entries as a reference point.
CCCS(=O)(=O)Nc1ccc(F)c(C(=O)c2c[nH]c3ncc(-c4ccc(Cl)cc4)cc23)c1F :: 1
CN(C)C/C=C/C(=O)Nc1cccc(C(=O)Nc2ccc(Nc3nccc(-c4cccnc4)n3)cc2)c1 :: 1
Fc1cc(-c2cc[nH]/c(=N/c3ccc(-n4cnc(N5CCOCC5)n4)cc3)n2)cc(N2CCOCC2)c1 :: -1

Problem: Below 90% on % control? Entry CN(C)C/C=C/C(=O)Nc1cccc(C(=O)Nc2ccc(Nc3nccc(-c4c(-c5ccccc5)nn5ccccc45)n3)cc2)c1
Solution: -1

Problem: Lab log: compare recorded % control with 90%; is it strictly lower for CN(C)C/C=C/C(=O)Nc1cccc(C(=O)Nc2ccc(Nc3nccc(/C(C#N)=C4\Nc5ccccc5S4)n3)cc2)c1 ?
Solution: -1

Problem: I wonder whether Cc1cc(NC(=O)c2cccc(NC(=O)/C=C/CN(C)C)c2)ccc1Nc1nccc(-c2cccnc2)n1 has % control below 90%. Can you tell?
Solution: -1

Problem: Would you kindly verify if % control of O=C1NC(=O)/C(=C/c2ccc3nccc(-c4ccncc4)c3c2)S1 is strictly less than 90%?
Solution: 1

Problem: Is % control of Cc1ccc(NC(=O)c2ccc(NC(=O)/C=C/CN(C)C)cc2)cc1Nc1nccc(-c2cccnc2)n1 strictly below 90%?
Solution: -1

Problem: A record lists CN(C)C/C=C/C(=O)Nc1ccc(C(=O)Nc2cccc(Nc3nccc(-c4cccnc4)n3)c2)cc1 . Is its % control below 90%?
Solution: 1

----------
target: Mitogen-activated protein kinase 8 (Homo sapiens); assay: Inhibition of JNK1 (unknown origin)
Sequence (P45983 whole entry): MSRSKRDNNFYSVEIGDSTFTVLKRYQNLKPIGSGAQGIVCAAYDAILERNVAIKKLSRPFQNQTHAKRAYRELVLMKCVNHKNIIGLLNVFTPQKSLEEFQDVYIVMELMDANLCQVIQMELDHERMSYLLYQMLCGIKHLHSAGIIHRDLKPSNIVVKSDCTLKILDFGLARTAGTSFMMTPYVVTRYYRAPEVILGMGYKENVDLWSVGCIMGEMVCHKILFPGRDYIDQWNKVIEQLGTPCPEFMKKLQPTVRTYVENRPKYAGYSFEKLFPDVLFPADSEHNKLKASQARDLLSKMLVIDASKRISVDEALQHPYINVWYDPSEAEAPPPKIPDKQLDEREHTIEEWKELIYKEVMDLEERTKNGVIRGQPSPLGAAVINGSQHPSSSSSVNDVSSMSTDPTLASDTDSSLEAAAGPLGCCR
Outcome measure: pIC50
Quick note: pIC50 means taking -log10 of the concentration in moles per liter.

Problem: Respond only with pIC50 recorded for CN(C)C/C=C/C(=O)Nc1cccc(C(=O)Nc2ccc(Nc3nccc(-c4cccnc4)n3)cc2)c1
Solution: 7.39
